- SYSTEM NAME: alpha-L-fucosidase (Bos taurus)
- ASSAY PROCEDURE: The compound was tested for the inhibitory activity against alpha-L-Fucosidase in bovine kidney
MEASURED ENDPOINT: pKi
# pKi = -log10(concentration in molar units)

Lab note: CC1=CC(N)C(O)C(O)C1O (configuration not stated) gave pKi of 4.35

Lab note: CC1CC(O)(CN)C(O)C(O)C1O (configuration not stated) gave pKi of 5.55

###

- SYSTEM NAME: alpha-L-fucosidase (Bos taurus)
- ASSAY PROCEDURE: The compound was tested for the inhibitory activity against alpha-L-Fucosidase in bovine kidney
MEASURED ENDPOINT: Ki (µM)
Numeric only. Scale: µM

Lab note: CC1CC(O)(CN)C(O)C(O)C1O (stereo unspecified) gave Ki of 3
